molecular target: D(1A) dopamine receptor (Homo sapiens) (UniProt P21728); test: Allosteric Agonists of the Human D1 Dopamine Receptor: qHTS; details: HEK293 T-REx D1 cells, calcium flux, agonist mode; at 2 µM; active compounds read high; note: 0% is about no effect
Sequence (P21728 whole entry, looked up): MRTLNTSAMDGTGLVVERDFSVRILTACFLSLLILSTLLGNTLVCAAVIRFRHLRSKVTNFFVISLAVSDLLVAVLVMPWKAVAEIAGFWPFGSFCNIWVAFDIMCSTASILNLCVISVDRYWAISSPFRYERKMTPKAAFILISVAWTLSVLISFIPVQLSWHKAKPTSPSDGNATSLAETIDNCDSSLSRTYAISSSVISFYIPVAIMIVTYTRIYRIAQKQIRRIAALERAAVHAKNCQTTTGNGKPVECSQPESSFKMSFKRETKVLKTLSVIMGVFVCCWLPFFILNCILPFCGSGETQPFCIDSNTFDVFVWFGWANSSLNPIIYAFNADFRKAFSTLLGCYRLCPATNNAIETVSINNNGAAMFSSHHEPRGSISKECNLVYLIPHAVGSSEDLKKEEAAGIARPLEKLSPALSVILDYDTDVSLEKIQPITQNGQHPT
Screen size: about 360,000 compounds; about 3,700 (1%) were called active. Many of the other results were omitted from the sample, so actives are more common in it than they were.
Quick reference: activation of the listed items.
outcome_measure: activation (%)

>>> df
                                    compound  number
 0  Cc1ccc2sc(N(Cc3cccnc3)C(=O)C3COc4ccccc4O3)nc2c1C (stereo not drawn)    20.1
 1  O=C(Nc1ccccc1)N1CCC(C(=O)N2CCN(Cc3ccccc3)CC2)CC1  0.0463
 2  CCn1cc(C(=O)NCc2ccc(C)cc2)c(=O)c2cc(S(=O)(=O)N3CCc4ccccc4C3)ccc21   -1.37
 3  COc1ccc(OC)c(-c2nc(C(N)=O)c3c(n2)n(-c2ccc4c(c2)OCO4)c(=O)n3C)c1   -1.26
 4  CCOc1ccccc1NC(=O)C1CCCN(S(=O)(=O)c2cn(C)cn2)C1 (stereo not drawn)   -2.08
 5  Cc1ccc2c(c1)N(C(=O)CCC(=O)NCc1ccccc1F)CC(C)O2 (stereo not drawn)    1.03
 6  O=C(Nc1ccccc1)N1CCN(C2c3ccccc3-c3ccccc32)CC1    35.4
 7         O=C(c1ccc(F)cc1)n1c(=S)nc2ccccn21    2.37
 8  COc1ccc(Cl)cc1N(C)C(=O)c1cc2c(=O)oc3ccc(C)cc3c2s1    1.68
 9  CCOc1ccc(Nc2oc(/C=C/c3ccc(F)cc3)nc2C#N)cc1  -0.316
10           O=C(NC(=S)N1CCc2ccccc21)c1ccco1     1.7
11  CCC(=O)NC(=S)Nc1ccc(NC(=O)c2ccco2)c(Cl)c1    42.4
12    O=C(C[n+]1cc(Br)cc2ccccc21)c1ccc(F)cc1    39.6
13  COc1cccc(C(=O)NC2=NC(c3ccc(N(C)C)cc3)CC(=O)N2)c1 (stereo not drawn)  -0.763
14  FC(F)(F)c1cc(-c2ccco2)nc(NCc2ccc(Cl)cc2)n1    7.88
15  COc1ccc(CNc2nc(-c3ccc(Cl)cc3)cc(C(F)(F)F)n2)cc1    41.5
16  COc1ccc(NC(C)=O)cc1NC(=O)CN1CCN(C2c3ccccc3-c3ccccc32)CC1    1.82
17  CCC(=O)N1CCc2cc(Br)cc(S(=O)(=O)Nc3ccc(C)cc3C)c21   0.918
